The measurements presented in this section are drawn from patent US20210317092A1.

- tested-on: human Bradykinin B1 receptor (Homo sapiens, UniProt P46663)
- Construct: host or cells: CHO-K1
- assay-protocol: Calcium flux Assay (FLIPR) with recombinant CHO-K1 cells expressing human Bradykinin B1 receptor, in presence (hB1 IC50) or absence (hB1 free IC50) of 0.1% BSA
- Format: cell-based
- condition-label: in presence of 0.1% BSA, read-out: hB1 IC50
pIC50: −log10 of the molar value.
recorded-endpoint: pIC50

structure-notation | obs-value
CCOc1ccc(-c2ccc(NC(=O)C3(c4ccc(Cl)cc4F)CC3)cc2-c2nnn[nH]2)cn1 | 7.64
CC(C)(O)Cc1ccc(-c2ccc(NC(=O)C3(c4cccc(Cl)c4)CC3)cc2-c2nnn[nH]2)cn1 | 6.95
CCc1cccc(C2(C(=O)Nc3ccc(-c4ccc(OC)c(OC)c4)c(-c4nnn[nH]4)c3)CC2)c1 | 7.50
O=C(Nc1cc(-c2nnn[nH]2)c(-c2ccc(C(F)(F)F)nc2)cc1O)C1(c2ccc(F)cc2F)CC1 | 7.05
COc1ccc(-c2ccc(NC(=O)C3(c4ccccn4)CC3)cc2-c2nnn[nH]2)cc1OC | 6.18

[1] CCOc1ncc(-c2ccc(NC(=O)C3(c4cccc(Cl)c4)CC3)cc2-c2nnn[nH]2)cc1F
[2] COc1ccc(-c2ccc(NC(=O)C(C)(C)c3cccc(Cl)c3)cc2-c2nnn[nH]2)cc1OC
Given the listed items, does 1 or 2 have the lesser reported pIC50? Your choice should be expressed through its label.
2

* * *

- tested-on: human Bradykinin B1 receptor (Homo sapiens, UniProt P46663)
- Construct: host or cells: CHO-K1
- assay-protocol: Calcium flux Assay (FLIPR) with recombinant CHO-K1 cells expressing human Bradykinin B1 receptor, in presence (hB1 IC50) or absence (hB1 free IC50) of 0.1% BSA
- Type: cell-based
- condition-label: in presence of 0.1% BSA, read-out: hB1 IC50
pIC50: −log10 of the molar value.
recorded-endpoint: pIC50

structure-notation | tested-on | obs-value
CCOc1ncc(-c2ccc(NC(=O)C3(c4ccc(C(F)(F)F)cc4)CC3)cc2-c2nnn[nH]2)cc1F | human Bradykinin B1 receptor (Homo sapiens, UniProt P46663) | 7.84
CCOc1ccc(-c2ccc(NC(=O)C3(c4ccc(C)c(F)c4)CC3)cc2-c2nnn[nH]2)cn1 | human Bradykinin B1 receptor (Homo sapiens, UniProt P46663) | 7.62
CCc1cc(-c2ccc(NC(=O)C3(c4cccc(Cl)c4)CC3)cc2-c2nnn[nH]2)ccn1 | human Bradykinin B1 receptor (Homo sapiens, UniProt P46663) | 7.83
O=C(Nc1ccc(-c2ccc(C(F)(F)F)cc2)c(-c2nnn[nH]2)c1)C1(c2cccc(Cl)c2)CC1 | human Bradykinin B1 receptor (Homo sapiens, UniProt P46663) | 6.86
CCOc1ccc(-c2ccc(NC(=O)C3(c4cccc(C(C)(C)C)c4)CC3)cc2-c2nnn[nH]2)cn1 | human Bradykinin B1 receptor (Homo sapiens, UniProt P46663) | 6.86

[P] Cn1ncc2ccc(-c3ccc(NC(=O)C4(c5cccc(Cl)c5)CC4)cc3-c3nnn[nH]3)cc21
[Q] COc1ccc(-c2ccc(NC(=O)C3(c4cccc(Cl)c4)CCC3)cc2-c2nnn[nH]2)cc1OC
Given the listed items, does P or Q have the lesser reported pIC50? Your choice should be expressed through its label.
Q
(Q: 5.61, P: 7.20)

* * *

- tested-on: human Bradykinin B1 receptor (Homo sapiens, UniProt P46663)
- Construct: host or cells: CHO-K1
- assay-protocol: Calcium flux Assay (FLIPR) with recombinant CHO-K1 cells expressing human Bradykinin B1 receptor, in presence (hB1 IC50) or absence (hB1 free IC50) of 0.1% BSA
- Type: cell-based
- condition-label: in presence of 0.1% BSA, read-out: hB1 IC50
- Experimental: The potency to inhibit the Bradykinin B1 receptor was determined for the compounds of this invention in a cell-based fluorescent calcium-mobilisation assay. […] The change of the intracellular Ca^2+ concentration is monitored with a fluorescent plate reader FLIPR TETRA® (Molecular Devices). […] Peak fluorescence was used to determine the response to agonist obtained at each concentration of compound examples by the following equation: […]
pIC50: −log10 of the molar value.
recorded-endpoint: pIC50

structure-notation | pIC50
COc1cncc(-c2ccc(NC(=O)C3(c4cccc(C)c4)CC3)cc2-c2nnn[nH]2)c1 | 6.90

[A] CCOc1cncc(-c2ccc(NC(=O)C3(c4cccc(C(F)(F)F)c4)CC3)cc2-c2nnn[nH]2)c1
[B] COc1ccc(-c2ccc(NC(=O)C3(c4cccc(Cl)c4)CC3)cc2-c2nnn[nH]2)c(C)c1
[C] CS(=O)(=O)c1cncc(-c2ccc(NC(=O)C3(c4cccc(Cl)c4)CC3)cc2-c2nnn[nH]2)c1
[D] CCOc1ccc(-c2ccc(NC(=O)C3(c4cccc(C(F)(F)F)c4)CC3)cc2-c2nnn[nH]2)cn1
[E] Cn1ncc2cc(-c3ccc(NC(=O)C4(c5cccc(Cl)c5)CC4)cc3-c3nnn[nH]3)ccc21
# ascending order, key=pIC50 Return value: ordered labels per request.
B, C, A, E, D

* * *

- tested-on: human Bradykinin B1 receptor (Homo sapiens, UniProt P46663)
- Construct: host or cells: CHO-K1
- Sequence (P46663 1-353): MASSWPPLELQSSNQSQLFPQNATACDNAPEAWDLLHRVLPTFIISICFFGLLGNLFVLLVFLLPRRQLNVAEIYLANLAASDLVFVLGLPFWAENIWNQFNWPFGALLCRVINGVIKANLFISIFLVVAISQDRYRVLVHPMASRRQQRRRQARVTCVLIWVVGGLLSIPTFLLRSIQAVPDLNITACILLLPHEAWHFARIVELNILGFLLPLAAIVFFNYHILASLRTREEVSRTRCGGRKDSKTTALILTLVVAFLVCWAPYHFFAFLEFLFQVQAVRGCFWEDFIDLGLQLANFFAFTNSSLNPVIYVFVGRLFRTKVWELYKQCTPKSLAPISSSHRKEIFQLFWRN
- assay-protocol: Calcium flux Assay (FLIPR) with recombinant CHO-K1 cells expressing human Bradykinin B1 receptor, in presence (hB1 IC50) or absence (hB1 free IC50) of 0.1% BSA
- Assay type: cell-based
- condition-label: in presence of 0.1% BSA, read-out: hB1 IC50
recorded-endpoint: IC50 (nM)

Solved cases (5 shown):
structure-notation | IC50 [nM]
COc1ccc(-c2ccc(NC(=O)C3(c4cccc(Cl)c4)CC3)cc2-c2nnn[nH]2)cn1 | 328
O=C(Nc1cc(-c2nnn[nH]2)c(-c2ccc(C(F)(F)F)nc2)cc1O)C1(c2cc(F)cc(Cl)c2)CC1 | 84
COc1ccc(F)c(C2(C(=O)Nc3ccc(-c4ccc(OC)c(OC)c4)c(-c4nnn[nH]4)c3)CC2)c1 | 212
CCOc1ccc(-c2ccc(NC(=O)C3(C(C)C)CC3)cc2-c2nnn[nH]2)cn1 | 1560
O=C(Nc1ccc(-c2cnc(C(F)(F)F)nc2)c(-c2nnn[nH]2)c1)C1(c2cccc(Cl)c2)CC1 | 1370

[P] COc1cc(-c2ccc(NC(=O)C3(c4cccc(Cl)c4)CC3)cc2-c2nnn[nH]2)ccn1
[Q] CCOc1ccc(-c2ccc(NC(=O)C3(c4cc(Cl)ccc4F)CC3)cc2-c2nnn[nH]2)cn1
Given the listed items, does P or Q have the lesser reported IC50? Your choice should be expressed through its label.
Q

* * *

- tested-on: human Bradykinin B1 receptor (Homo sapiens, UniProt P46663)
- Construct: host or cells: CHO-K1
- assay-protocol: Calcium flux Assay (FLIPR) with recombinant CHO-K1 cells expressing human Bradykinin B1 receptor, in presence (hB1 IC50) or absence (hB1 free IC50) of 0.1% BSA
- Type: cell-based
- condition-label: in absence of 0.1% BSA, read-out: hB1 free IC50
recorded-endpoint: IC50 (nM)

compound | tested-on | recorded-endpoint | obs-value
Cc1nc(C(F)(F)F)nn1-c1ccc(NC(=O)C2(c3ccc(F)c(F)c3)CC2)cc1-c1nnn[nH]1 [Example 360] | human Bradykinin B1 receptor (Homo sapiens, UniProt P46663) | IC50 | 1700
CC(F)(F)c1ccc(-c2ccc(NC(=O)C3(c4ccc(F)c(F)c4)CC3)cc2-c2nnn[nH]2)cn1 [Example 279] | human Bradykinin B1 receptor (Homo sapiens, UniProt P46663) | IC50 | 23.1
CCOc1ccc(-c2ccc(NC(=O)C3(CC(C)C)CC3)cc2-c2nnn[nH]2)cn1 [Example 89] | human Bradykinin B1 receptor (Homo sapiens, UniProt P46663) | IC50 | 541
O=C(Nc1cc(F)c(-c2ccnc(C(F)(F)F)c2)c(-c2nnn[nH]2)c1)C1(c2ccc(C(F)(F)F)cc2F)CC1 [Example 267] | human Bradykinin B1 receptor (Homo sapiens, UniProt P46663) | IC50 | 19
CCOc1ccc(-c2ccc(NC(=O)C3(c4ccccc4Cl)CC3)cc2-c2nnn[nH]2)cn1 [Example 93] | human Bradykinin B1 receptor (Homo sapiens, UniProt P46663) | IC50 | 39.3
CC(C)(C)c1ccn(-c2ccc(NC(=O)C3(c4ccc(OC(F)(F)F)cc4F)CC3)cc2-c2nnn[nH]2)n1 [Example 381] | human Bradykinin B1 receptor (Homo sapiens, UniProt P46663) | IC50 | 36.7

[A] CS(=O)(=O)c1ccc(-c2ccc(NC(=O)C3(c4cccc(Cl)c4)CC3)cc2-c2nnn[nH]2)cn1 [Example 200]
[B] COc1cc(-c2ccc(NC(=O)C3(c4cccc(Cl)c4)CC3)cc2-c2nnn[nH]2)cnc1C(F)(F)F [Example 146]
Given the listed items, does A or B have the lesser reported IC50? Your choice should be expressed through its label.
B
(B: 100 nM, A: 1170 nM)

[P] COc1ccc(-c2cc(F)c(NC(=O)C3(c4ccc(Cl)cc4)CC3)cc2-c2nnn[nH]2)cc1OC [Example 264]
[Q] CCOc1ccc(-c2ccc(NC(=O)C(C)(C)C)cc2-c2nnn[nH]2)cn1 [Example 309]
Between P and Q , which one shows the larger IC50 value? Your choice should be expressed through its label.
P
